Test: Hydrolytic stability of compound in D2O/5% DMSO-d6 solvent at 500 uM after 1 hr by 1H-NMR spectroscopy
Format: physicochemical
Conditions: D2O/5% DMSO-d6; read-out: Stability
readout_label: remaining at 1 h, 500 µM (%)
Number in %, nothing else.

Given the compound COc1ccc(B2OC(C)(C)C(C)(C)O2)c(/C=N/NC(=O)c2ccncc2)c1 , what is its reported remaining at 1 h, 500 µM?
85

###

Assay: Hydrolytic stability of compound in D2O/5% DMSO-d6 solvent at 500 uM preincubated for 1 hr followed by H2O2 addition measured after 24 hrs by 1H-NMR spectroscopy
Type: physicochemical
Details: D2O/5% DMSO-d6 with H2O2 added; read-out: Stability
readout_label: remaining at 24 h, 500 µM (%)
Number in %, nothing else.

Given the compound COc1ccc(B2OC(C)(C)C(C)(C)O2)c(/C=N/NC(=O)c2ccncc2)c1 , what is its reported remaining at 24 h, 500 µM?
67

###

Assay: Iron chelating activity of the compound assessed as recovery of calcein fluorescence from calcein-Fe3+ complex by measuring iron binding constant at 4 uM measured after 2 hrs by fluorescence assay
Active and inactive are the calls of the source. The rule behind the calls is not given here.
readout_label: Activity

Below, 5 compounds whose answers are already recorded.
COc1ccc(B2OC(C)(C)C(C)(C)O2)c(/C=N/NC(=O)c2ccncc2)c1 | inactive
COc1ccc(/C=N/NC(=O)c2ccncc2)cc1B1OC(C)(C)C(C)(C)O1 | inactive
CC1(C)OB(c2ccccc2/C=N/NC(=S)Nc2ccccc2)OC1(C)C | inactive
CC1(C)OB(c2ccccc2/C=N/NC(=O)c2ccncc2)OC1(C)C | inactive
COc1ccc(/C=N/NC(=O)c2cccnc2)c(O)c1 | > 90%

Given the compound O=C(N/N=C/c1ccc(Cl)cc1B(O)O)c1ccncc1 , what is its reported Activity?
inactive

Given the compound CC1(C)OB(c2cc3c(cc2/C=N/NC(=O)c2ccncc2)OCO3)OC1(C)C , what is its reported Activity?
inactive

Given the compound CNC(=S)N/N=C/c1ccccc1B1OC(C)(C)C(C)(C)O1 , what is its reported Activity?
inactive

Given the compound COc1ccc(/C=N/NC(=O)c2cccnc2)c(B2OC(C)(C)C(C)(C)O2)c1 , what is its reported Activity?
inactive

Given the compound Oc1ccccc1/C=N/NC(=S)Nc1ccccc1 , what is its reported Activity?
inactive

###

Experiment: Hydrolytic stability of compound in D2O/2% DMSO-d6 solvent at 200 uM preincubated for 1 hr followed by H2O2 addition measured after 24 hrs by 1H-NMR spectroscopy
Assay type: physicochemical
Conditions: D2O/2% DMSO-d6 with H2O2 added; read-out: Stability
readout_label: remaining at 24 h, 200 µM
Just the number plus its unit, please.

Given the compound CC1(C)OB(c2cc3c(cc2/C=N/NC(=O)c2ccncc2)OCO3)OC1(C)C , what is its reported remaining at 24 h, 200 µM?
45%

###

Experiment: Iron chelating activity of the compound assessed as recovery of calcein fluorescence from calcein-Fe3+ complex at 4 uM preincubated with H2O2 for 12 hrs followed by addition to calcein-Fe3+ complex measured after 2 hrs by fluorescence assay relative to control
The source made the active and inactive calls. The calls are words filed in the database; no cut-off is given here.
readout_label: Activity

O=C(N/N=C/c1ccc(Cl)cc1B(O)O)c1ccncc1 | inactive
COc1ccc(B2OC(C)(C)C(C)(C)O2)c(/C=N/NC(=O)c2ccncc2)c1 | 60%
COc1ccc(/C=N/NC(=O)c2cccnc2)c(B2OC(C)(C)C(C)(C)O2)c1 | inactive
CC1(C)OB(c2ccccc2/C=N/NC(=S)Nc2ccccc2)OC1(C)C | inactive
CNC(=S)N/N=C/c1ccccc1B1OC(C)(C)C(C)(C)O1 | inactive

Given the molecule CC1(C)OB(c2cc3c(cc2/C=N/NC(=O)c2ccncc2)OCO3)OC1(C)C , what is its reported Activity?
75%

Given the molecule COc1ccc(/C=N/NC(=O)c2ccncc2)cc1B1OC(C)(C)C(C)(C)O1 , what is its reported Activity?
inactive

Given the molecule CC1(C)OB(c2ccccc2/C=N/NC(=O)c2ccncc2)OC1(C)C , what is its reported Activity?
50%
